Molecular target: T1, His-tagged TREM2 ECD (ecto domain residues 19-172 of human TREM2, C-terminal 6X-His tag) (human, UniProt Q9NZC2 19-172)
T1 construct: Made in Expi293F cells; the mouse Ig kappa secretion signal is not part of the mature protein; Biotinylated for the Octet binning; also called TREM2-His; TREM2-His protein
T1 sequence: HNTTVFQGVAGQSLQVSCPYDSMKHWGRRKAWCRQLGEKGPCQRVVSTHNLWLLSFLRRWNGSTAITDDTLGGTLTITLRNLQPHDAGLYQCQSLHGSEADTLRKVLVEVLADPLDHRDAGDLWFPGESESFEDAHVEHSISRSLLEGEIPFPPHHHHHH
Assay: Table 1 Kd; Biacore, TREM2-His analyte (presumed)
Each entry falls in a class defined on Kd; the bands are LOW (below 2 nM), MID (2 nM to below 10 nM), HIGH (10 nM or more)

A selection of reference data follows.
40H3.A4 (antibody, V domains shown, Mouse hybridoma antibody, isotype N.D; also called RS8.40H3.A4) VH: EVQLQQSGAEVVKPGASVKLSCTASGFNIKDTYMHWVKQRPEQGLEWIGRIDPANGNTKYDPKFQGKATITADTSSNTAYLQLSSLTSEDTAVYYCATLFAYWGQGTLVTVSA VL: DIVMTQAAFSNPVTLGTSASISCRSSKSLLHSNGITYLYWYLQKPGQSPQLLIYQMSNLASGVPDRFSSSGSGIDFTLRINRVEAEDVGVYYCAQNLELPTFGSGTKLEIK    LOW
RS9.F6 (antibody, V domains shown) VH: QVQLQQPGAELVKPGASVKLSCKASGYTFTSYWMHWVKQSPGRGLEWIGRSDPTTGGTNYNEKFKTKATLTVDKPSSTAYMQLSSLTSDDSAVYYCVRTSGTGDYWGQGTSLTVSS VL: DVVMTQTPLSLPVSLGDQASISCRSSQSLVHNNGNTFLHWYLQKPGQSPKLLIYKVSNRFSGVPDRFSGSGSGTDFTLKISRVEAEDLGVYFCSQTTHVPPTFGGGTKLEIK    LOW
42E8.H1 (antibody, V domains shown, Mouse hybridoma antibody, Ig2a, k; also called RS8.42E8.H1) VH: DVQLQESGPGLVKPSQSLSLTCTVTGYSITSDYAWNWIRQFPGNKLEWMGYINYSGRTIYNPSLKSRISITRDTSKNHFFLQLISVTTEDTATYYCARWNGNYGFAYWGQGTLVTVSA VL: DVVMTQNPLSLPVSLGDQASISCRSSQSLVHINGNTYLHWYLQKPGQSPKLLIYKVSNRFSGVPDRFSGSGSGTDFTLKISRVEAEDLGVYFCSQTTHALFTFGSGTKLEIK    HIGH

Exercise: State the class of the binder shown: 49H11.B1 (antibody, IgG3, V domains shown, Mouse hybridoma antibody, IgG3, k; also called RS8.49H11.B1) VH: DVQLQESGPGLVKPSQSLSLTCTVTGYSITSDYAWNWIRQFPGNRLEWMGYISFSGSTSYNPSLKSRISITRDTSKNQFFLQLNSVTTEDTATYYCARWNGNYGFAYWGQGTLVTVSA VL: DVVMTQTPLSLPVSLGDQASISCRSSQSLVHINGNTYLHWYLQKPGQSPKLLIYKVSNRFSGVPDRFSGSGSGTDFTLKISRVEAEDLGVYFCSQSTHVTFTFGSGTKLEIK
Solution: HIGH

Exercise: State the class of the binder shown: 54C2.A1 (antibody, V domains shown, Mouse hybridoma antibody, Ig2b, k; also called RS8.54C2.A1) VH: QVHLQQSGSELRSPGSSVKLSCKDFDSEVFPIAYMSWVRQKPGHGFEWIGDILPSIGRRIYGVKFEDKATLDADTVSNTAYLELNSLTSEDSAIYYCTRKDYGSLAYWGQGTLVTVSA VL: DVVMTQTPLSLPVSLGDQASISCRSSQSLVHINGNTYLQWYLQKPGQSPKLLIYKVSNRFSGVPDRFSGSGSGTDFTLRISRVEAEDLGVYFCSQSTHLPYTFGGGTKLEIK
Solution: MID

Exercise: State the class of the binder shown: 26E2.A3 (antibody, V domains shown, Mouse hybridoma antibody, Ig2a, k; also called RS8.26E2.A3) VH: QVHLQQSGSELRSPGSSVKLSCKDFDSEVFPISYMSWIRQKPGHGFEWIGDILPSIGGRIYGVKFEDRATLDADTVSNTAYLELNSLTSEDSAIYYCARKDYGSLAYWGQGTLVTVSA VL: DVVMTQTPLSLPVSLGDQASISCRSSQSLVHINGNTYLQWFLQKPGQSPKLLIYKVSNRFSGVPDRFSGSGSGTAFTLKISRVEAEDLGVYFCSQSTHVPYTFGGGTKLEIK
Solution: HIGH

Exercise: State the class of the binder shown: 3D3.A1 (antibody, V domains shown, Mouse hybridoma antibody, Ig2a, k; also called RS8.3D3.A1) VH: EVQLQQSGPELVKPGASVKISCKTSGYTLSEYTMHWVIQSHGKSLEWIGGVIPNSGGTSYNQKFRDKASLTVDKSSSTAYLELRSLTSEDSAVYYCARGDDSYRRGYALDYWGQGTSVTVSS VL: DIVMSQSPSSLAVSVGEKVTMSCKSSQSLLYSSNQKSYLAWYQQKPGQSPKLLIYWASTRESGVPDRFRGSGSGTDFTLTISSVKAEDLAVYYCQQYFSYPPTFGGGTKLEIK
Solution: MID

Exercise: State the class of the binder shown: 57D7.A1 (antibody, V domains shown, Mouse hybridoma antibody, Ig2a, k; also called RS8.57D7.A1) VH: QVQLKESGPGLVAPSQSLSITCTVSGFSLSRYSVYWVRQPPGKGLEWLGMIWGGGNTDYNSALKSRLSISKDNSKSQVFLKMNSLQTDDSAMYYCVQYGGMDYWGQGTSVTVSS VL: DVLMTQTPLSLPVSLGDQASISCRSSQSIVHSNGNTYLEWYLQKPGQSPKLLIYKVSNRFSGVPDRFSGSGSGTDFTLKISRVEAEDLGVYYCFQGSHVPYTFGGGTKLEIK
Solution: MID
